Attribution: PubChem BioAssay (NCI)

For each record, write down the corresponding growth.
- System: NCI-H322M lung
- run_description: NCI-60 one-dose screen, 48 h (100 = growth as untreated, 0 = no growth, -100 = all killed)
- protocol_conditions: 10 µM unless noted
The panel holds about 83,000 compounds, 20% with a hit somewhere; the sample as a whole holds those more often.
Give bare numbers, in %.

Solved entries:
- CCCCCN1C(=O)/C(=c2\sc3n(c2=O)C2C(NN=3)N(CC)C(=O)N2CC)c2ccccc21 (stereo not given): 21.2
- CN(C)c1ccc(-c2c(C#N)c(N)nn2C(=O)c2ccc(NC(=O)c3ccccn3)cc2)cc1: 96.7

For the 3 molecules below, give their growth values.
1. O=C(N(c1ccccc1)c1ccccc1)n1cc(I)c2nc(Cl)nc(Cl)c21
2. Nc1ncnc2c1N=C(c1ccc(Br)cc1)CC(c1cccc(Nc3ccnc4cc(C(F)(F)F)ccc34)c1)N2 (stereo not given)
3. Cc1[nH]c(=O)[nH]c(=O)c1Br

Output:
1: 92.6; 2: 95.6; 3: 120

* * *

Kindly supply the reported growth values for the records listed here.
- Tested on: RXF 393 renal
- run_description: NCI-60 one-dose screen, 48 h (100 = growth as untreated, 0 = no growth, -100 = all killed)
- protocol_conditions: 10 µM unless noted
Compounds without any hit were thinned out: in the full panel of roughly 83,000, 20% have a hit. Active and inactive are the calls of the source. Rule for the calls: active = growth percent below 10; inactive = the rest.

Below, 8 compounds whose answers are already recorded.
* Nc1cnc(C(=O)NNc2nc3cc(F)ccc3n3cccc23)cn1 | 70.6% (inactive)
* CC(C)c1ccc(-n2c(=S)[nH]c3sc4cc(O)ccc4c3c2=O)cc1 | 91.2% (inactive)
* Nc1ncc(-c2ccc3ncnc(Nc4cccc(Cl)c4)c3c2)cn1 | 25.2% (inactive)
* CCOC(=O)c1c(NC(=O)c2cccc(C(F)(F)F)c2)sc2c(CN(C)C)c(O)ccc12 | 38.4% (inactive)
* Cc1cc(N2CCCCC2)cc(C)c1-c1csc(NC(=O)c2ccncc2)n1 | 77.6% (inactive)
* COc1ccccc1NC(=O)N=Nc1c(O)[nH]c2ccccc12 | 100% (inactive)
* CCCNC(=O)Nc1ccc2cc3ccc(NC(=O)NCCC)cc3nc2c1 | 77.7% (inactive)
* O=S(=O)(NCCNc1nccc(-c2c(-c3ccc(F)c(O)c3)nc3sccn23)n1)c1ccc(O)cc1 | 25.8% (inactive)

Give growth for each of the items listed below.
1. CC(C)Cn1cnc2c(=O)[nH]c(N)nc21
2. O=C(O)CCN1C(=O)/C(=C/C(Cl)=C/c2ccccc2)SC1=S
3. COc1ccc(/C=C/C(=O)c2cc3c(N)c(C(=O)Nc4cccc5ccccc45)sc3nc2C)cc1
4. O=C(c1ccncc1)N1N=C(c2ccc(Cl)cc2)C[C@H]1c1cn(-c2ccccc2)nc1-c1ccccc1
5. Cc1csc(Nc2nc(-c3ccccn3)nc(C(Cl)(Cl)Cl)n2)n1

Output:
94.4% (inactive)
-10.2% (active)
63.4% (inactive)
87.6% (inactive)
91.4% (inactive)

* * *

- Test system: NCI-H23 lung
- run_description: NCI-60 one-dose screen, 48 h (100 = growth as untreated, 0 = no growth, -100 = all killed)
- protocol_conditions: 10 µM unless noted
Compounds without any hit were thinned out: in the full panel of roughly 83,000, 20% have a hit.
hey, just use yes (1) if measured growth is less than 70%, otherwise no (0)

For orientation, consider the following solved cases.
• Nc1ncnc2c1c(-c1cccc(Cl)c1)nn2CC(=O)N1CCOCC1 = no (0)
• CCCCCN1C(=O)/C(=c2\sc3n(c2=O)C2C(NN=3)N(CC)C(=O)N2CC)c2ccccc21 (stereo not drawn) = yes (1)
• Nc1ncc(-c2ccc3ncnc(Nc4cccc(Cl)c4)c3c2)cn1 = yes (1)

Input: Quick check: does `C=C(C)[C@@H]1CC[C@]2(C(=O)N3CCOCC3)CC[C@]3(C)[C@H](CC[C@@H]4[C@@]5(C)C/C(=C/c6ccncc6)C(=O)C(C)(C)[C@@H]5CC[C@]43C)[C@@H]12` have growth under 70%?
Output: yes (1)

Input: For this molecule, is growth lower than 70%? N#CC1=C(N)Oc2c(sc3c(Br)cccc23)C1c1ccc(Cl)cc1 (stereo not drawn)
Output: yes (1)

Input: Please determine if `COCCOc1cc2ncnc(N3CCN(c4ncc(S(=O)(=O)N5CCCCC5)cn4)CC3)c2cc1OCCOC` is below 70% in terms of growth.
Output: no (0)

Input: Just wondering, is growth of CC1CCc2c(C(=O)Nc3ncc(Cc4cccc([N+](=O)[O-])c4)s3)csc2C1 (stereo not drawn) below 70%?
Output: yes (1)

Input: Here's an entry: `COc1cc(-c2nccc3[nH]c(-c4ccc5cc[nH]c5c4)nc23)cc(OC)c1OC` . Is its growth below 70%?
Output: yes (1)

Input: is_below(growth, 70%) for C1CCC([PH+](C2CCCCC2)C2CCCCC2[PH+](C2CCCCC2)C2CCCCC2)CC1.[Au].[CH-]1CCCCC1C1CCCC[N-]1 (stereo not drawn) ?
Output: yes (1)

Input: Take the molecule COC1/C=C/OC2(C)Oc3c(C)c(O)c4c(O)c(c(/C=N/Nc5ccc([N+](=O)[O-])cc5[N+](=O)[O-])c(O)c4c3C2=O)NC(=O)C(C)=C/C=C/C(C)C(O)C(C)C(O)C(C)C(OC(C)=O)C1C (stereo not drawn) and say whether its growth is less than 70%.
Output: yes (1)

* * *

I'd appreciate it if you could supply growth values for the items below.
- Test system: MDA-MB-435 melanoma
- run_description: NCI-60 one-dose screen, 48 h (100 = growth as untreated, 0 = no growth, -100 = all killed)
- protocol_conditions: 10 µM unless noted
This is part of a sample that, as a whole, favours compounds with a hit. Of some 83,000 tested, about 20% had one in any assay.
Numbers only, in %.

Previously resolved entries follow.
• Cc1ccc(/C=C2\COc3ccc(O)cc3C2=O)cc1 = 75.8
• CCc1ncnc2c1ccn2C(C)c1ccc(OC)c(F)c1 (centres undefined) = 6.71
• NC(N)=NCCCCCNc1noc(Cc2c[nH]c3cc(Br)ccc23)n1 = 87.7
• CSc1nc2ccccc2cc1/C=C1/C=C(c2ccccc2)NC1=O = 3.27
• Cc1ccc(C)n1-c1ccccc1-n1c(C)ccc1C = 94.1

Hi! Can you tell me growth for each of these molecules?
1. Cc1ccc(-c2nc([P+](c3ccccc3)(c3ccccc3)c3ccccc3)c(S(=O)(=O)c3ccc(C)cc3)o2)cc1
2. Cc1cc(N2CCCCC2)cc(C)c1-c1csc(NC(=O)c2ccncc2)n1
3. O=C(/C=C/c1cccc(Cl)c1)c1ccc(Nc2nc(Nc3ccc(F)cc3)nc(Nc3ccc(Cl)cc3)n2)cc1
4. O=C(/C=C/c1ccco1)Nc1ncc(Cc2cccc(C(F)(F)F)c2)s1
5. O=S(=O)(NCCCNc1nccc(-c2c(-c3ccc(F)c(O)c3)nc3sccn23)n1)c1ccccc1

Output:
1. -2.81
2. 37.1
3. 117
4. -49.6
5. 29.3

Report growth for each item below.
1. O=C(Nc1cccc(-c2ccc(Cl)c(C(F)(F)F)c2)c1)C1CCN(Cc2cccc3cccnc23)CC1
2. NS(=O)(=O)c1ccc(N=Nc2c(O)n(Cc3ccccc3)c3ccc(Cl)cc23)cc1
3. O=C(CN1C(=O)S/C(=C\c2ccccc2)C1=O)Nc1ncc(Cc2ccccc2Cl)s1

Output:
1. -83.7
2. 79.4
3. 93.6

I need growth for every entry listed below, if you could help.
1. COc1ccc(C(O)c2cc3c(N)c(C(=O)Nc4cccc(Br)c4)sc3nc2C)cc1 (centres undefined)
2. Nc1[nH]n2cc(-c3ccccc3)nc2c1N=Nc1ccc(S(N)(=O)=O)cc1

Output:
[-33.4, 28.9]

For every item below, please supply its growth.
1. COC12C=C/C(=C(/C(=O)OCc3ccncn3)C(=O)CCCCCCCCC3(OC)C=C/C(=C(/C(=O)OCc4ccncn4)C(=O)CCCCCCCC1)O3)O2
2. O=C1C(Cl)=C(NCCCCCCNC2=C(Cl)C(=O)c3ccccc3C2=O)C(=O)c2ccccc21
3. N#Cc1c(-c2ccccc2)cc(-c2ccccc2)n(CCCC(=O)Nc2ccccc2N)c1=O
4. CS(=O)(=O)Nc1cc(-c2ccc3ncnc(Nc4ccc5c(cnn5Cc5ccc(F)cc5)c4)c3c2)cnc1Cl
5. O=S(=O)(c1ccccc1)n1cc2c(c1)-c1nc(Nc3ncccn3)sc1CC2

Output:
-34.4
79.4
-15.6
45.3
61.5

Please supply growth for each of the following items, keeping them in order.
1. Cc1[nH]c(C(=O)Nc2ccc(C(=O)N3CCN(c4cc5c(cc4F)c(=O)c(C(=O)O)cn5C4CC4)CC3)cc2OC(C)C)c(Cl)c1Cl
2. O=C(NNC(=O)c1ccc(NC(=O)c2ccccn2)cc1)Nc1ccc([N+](=O)[O-])cc1

Output:
1: 88.5; 2: 106

Provide reported growth for each item, in the same order as listed.
1. COc1cccc(/C=C2\COc3ccc(O)c(O)c3C2=O)c1
2. CC(O)(c1ccccc1)C(c1ccccc1)C1CCCCN1 (centres undefined)
3. Oc1c(Br)cc(Br)c2ccc(Cn3cc(-c4ccc(C(F)(F)F)cc4)nn3)nc12
4. COc1ccc(C/C(C)=C(\c2ccc(Cl)cc2)c2ccc(OCCN3CCCCC3)cc2)cc1

Output:
1. -3.44
2. 99.1
3. 48.2
4. 102

Respectfully, I request growth for each entry included below.
1. Cc1cc(N2CCN(CC(=O)Nc3ccc4c(ccn4C)c3)CC2)nc(N2CCCCCC2)n1
2. C#CCOc1ccc2ncnc(Nc3ccc(NC(=O)C=C)cc3)c2c1

Output:
[95.2, -18.9]

Each molecule below has a reported value. Please supply its growth.
1. Cc1cc(C(=O)O)c(C)n1-c1cccc(C(=O)O)c1
2. O=C1/C=C/[C@@H](O)[C@@H]2C[C@@H](O)C[C@H]2/C=C/CCC[C@H](CCc2ccccc2)O1
3. CCSC(SCC)c1ccc(Cl)cc1
4. O=C(O)CCCN1C(=O)/C(=C/c2cn(-c3ccccc3)nc2-c2ccc([N+](=O)[O-])cc2)SC1=S
5. COc1cc2c(c(OC)c1OC)CCC(c1cccc(C(=O)Nc3cccc(Cl)c3)c1)O2 (centres undefined)

Output:
1: 100; 2: 5.95; 3: 97.4; 4: 48.6; 5: 82.1
